system: 1,4-dihydroxy-2-naphthoyl-CoA synthase (Mycobacterium tuberculosis (strain ATCC 25618 / H37Rv)) (UniProt P9WNP5)
Sequence (P9WNP5 whole entry, looked up): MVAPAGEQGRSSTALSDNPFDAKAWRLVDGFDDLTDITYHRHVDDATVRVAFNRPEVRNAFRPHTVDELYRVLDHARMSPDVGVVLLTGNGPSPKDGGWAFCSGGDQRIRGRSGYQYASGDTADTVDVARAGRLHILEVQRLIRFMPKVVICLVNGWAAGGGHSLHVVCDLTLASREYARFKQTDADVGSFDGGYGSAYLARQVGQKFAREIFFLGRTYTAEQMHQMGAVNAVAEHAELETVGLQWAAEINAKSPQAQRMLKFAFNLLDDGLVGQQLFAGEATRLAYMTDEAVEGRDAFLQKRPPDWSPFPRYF
assay overview: M. tuberculosis MenB inhibitors, primary screen, biochemical, absorbance (AID 540299)
condition description: MenB enzyme assay, absorbance read-out; concentration not given here
In all, about 100,000 compounds went through this assay and about 440 (0.44%) were called active. No stated cut-off is given here; in the data, active means inhibition above about 21% (passing the limit was not always enough); inactive means the rest. Shown is part of a subset that was picked to be rich in actives.
Classes to choose from: y for active, n for inactive

Query :: Identify the outcome logged in this assay for the compound shown: "C(=C\c1ccccc1)/CNCCCN1CCOCC1"
Result :: n

Query :: Which result was noted for this compound in the test: "CCC(=O)c1c(O)ccc2c(C)cc(=O)oc12"
Result :: n

Query :: Please let me know the test result on file for "O=C(O)/C(=C/C(=O)c1ccc(F)cc1)Nc1ccc2[nH]c(=O)[nH]c2c1" .
Result :: n

Query :: Each compound tested received a call. Report the one for COc1ccccc1COCC(O)CN1CCC(=O)CC1 (centres undefined) .
Result :: n

Query :: What is the recorded call for this compound in the test? "NS(=O)(=O)c1ccc(NC(=O)Cc2ccccc2F)cc1"
Result :: n

Query :: Please let me know the test result on file for "CCc1ccc(-c2nnn(Cc3nn[nH]n3)n2)cc1" .
Result :: y

Query :: # fetch the recorded call for "CC(C)(C)c1ccc(OCc2nnc(SCC(N)=O)n2-c2ccccc2)cc1" here
Result :: n

Query :: Please let me know the test result on file for "Cc1oc(-c2ccc(Cl)cc2)nc1CSCC(=O)N1CCc2ccccc21" .
Result :: n

Query :: Can you look up the reported call for CNCC(O)CN1CCN(c2ccccc2OC)CC1 (centres undefined) for me?
Result :: n

Query :: Answer briefly: the call reported for "O=C(OCc1ccc(-c2cc(C(F)(F)F)cc(C(F)(F)F)c2)o1)c1ccc2c(c1)CCO2" in this assay.
Result :: n

Query :: Hi, do you know how O=C(Cn1c(=O)oc2ccccc21)N(Cc1ccco1)CC1CCCO1 (centres undefined) came out in this test?
Result :: n

Query :: Please state the recorded outcome for this compound: "CCc1cc(CC)c(CO)c(CC)c1/C=N/O"
Result :: n

Query :: How was "Cc1cccc(COC(=O)Nc2ccc(N3CCCCC3)cc2)c1" classified in this test?
Result :: n

Query :: Could you check what this test reported for "N#Cc1nc(NC(=O)c2cc(-c3cccs3)nc3ccccc23)[nH]c1C#N" ?
Result :: n

Query :: // outcome(item) with item = "Cc1ccccc1NC(=O)COC(=O)c1ccccc1"
Result :: n

Query :: Given "COC(=O)c1ccccc1NC(=O)C1CCN(S(=O)(=O)c2ccc(OC)c(OC)c2)CC1" , state the outcome it received in this test.
Result :: n

Query :: I'd appreciate the recorded outcome for "CN1C(=O)c2cccc(NC(=O)c3ccccc3)c2C1=O" from this test.
Result :: n

Query :: Short answer needed: outcome of this test for "COc1cccc(-c2noc(NCCN3CCOCC3)n2)c1" ?
Result :: n

Query :: I'd appreciate the recorded outcome for "O=C(COn1nnc2ccccc21)N1CCC(Cc2ccccc2)CC1" from this test.
Result :: n

Query :: Test call, this compound: CC1CCCC(NC(=O)COC(=O)c2cccc(S(=O)(=O)N(C)C)c2)C1C (centres undefined)
Result :: n

Query :: Which result was noted for this compound in the test: "Cc1nc2ccc(NC(=O)CC(C)(C)C)cc2s1"
Result :: n

Query :: Record lookup: outcome of this test for "C/C(=C\C(=O)c1ccccc1)Nc1cccc(O)c1" ?
Result :: n

Query :: Identify the outcome logged in this assay for the compound shown: "O=C(c1nc(-c2ccc(Cl)cc2)n2c1CCCCC2)N1CCCCCC1"
Result :: n

Query :: Hello, I am checking results. What call was entered for CC(Sc1nnc(COc2ccccc2)n1-c1ccccc1)C(=O)O (centres undefined) ?
Result :: y
